Kindly state normalized growth for each of the entries shown.
Assay: chemical genetic growth profiling, strain panel (AID 1159580);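 note: tested at 20 µM; growth read once vehicle control cultures reached saturation at 30 °C; 1 = growth at the plate median or of vehicle wells; lower values mean less growth of the strain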
Conditions: S. cerevisiae deletion strains, growth OD, locus YML016C, strain PPZ1, hits give low values
In all, about 5,500 compounds went through this assay and about 2,000 (36%) were called active. Roughly 18% stayed inconclusive and do not appear here. Some of the results follow. *1 amine or outer side, *2 acyl side, *3 side chain or, on linkers, in order; H or OH if unused. Where a SMILES comes first, the peptide text is derived from it. Bridges are numbered along the chain shown (N, C = ends). [ ]: non-standard residue; d: D form. The star is where a group is joined. ξ: configuration not given here. ΔAla(E,3-NHCONH2) = NC(=O)N/C=C(/N)C(=O)O; X2 = NC1=NCCC(C(N[*:1])C(=O)[*:2])N1; ξβ3hOrn = NCCCC(N)CC(=O)*; Dap = NC[CH](N)C(=O)O
Numbers only.

Example compounds with recorded normalized growth:
>>> quantitative_result("NCCCC(N)CC(=O)NCC1NC(=O)C(CO)NC(=O)C(N)CNC(=O)C(C2CCN=C(N)N2)NC(=O)/C(=C\\NC(N)=O)NC1=O (stereo not drawn) (H-[Dap]S[Dap](ξβ3hOrn)[ΔAla(E,3-NHCONH2)][X2]; lactam 1-C; configuration not given here)")
1
>>> quantitative_result("COC1(C)CCC2OC2(C)CCC2C1CC2(C)C (centres undefined)")
1.02
>>> quantitative_result("CCOc1cccc(C(=O)c2ccc(O)c(O)c2O)c1")
0.71

Exam item: Returns the measured normalized growth for the input compound. Input: Cc1onc(-c2c(Cl)cccc2Cl)c1C(=O)N[C@@H]1C(=O)N2[C@@H]1SC(C)(C)[C@@H]2C(=O)O
Marked response: 1.02

----------
Test: chemical genetic growth profiling, strain panel (AID 1159580);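 note: tested at 20 µM; growth read once vehicle control cultures reached saturation at 30 °C; 1 = growth at the plate median or of vehicle wells; lower values mean less growth of the strain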
Details: S. cerevisiae deletion strains, growth OD, locus YOR270C, strain vph1
Out of some 5,500 compounds screened, about 2,000 (36%) were called active. Not shown: some 18% with an inconclusive outcome. No stated cut-off is given here; in the data, active means normalized growth mostly below about 0.91 (no sharp cut-off); inconclusive means no clear call, values can overlap the other calls; inactive means mostly above about 0.92. Some of the results follow.
Respond with a class label; see active, inactive

Here's what some known entries look like.
>>> group_label("NCCc1c[nH]c2ccccc12")
"inactive"
>>> group_label("CCOc1ccc(C(=O)c2ccc(OC)c(O)c2O)cc1")
"inactive"
>>> group_label("CCOc1ccc(C(=O)c2cc(O)c(OC)c(OC)c2O)cc1")
"inactive"
>>> group_label("COc1ccc(C(=O)c2ccc(O)cc2)c(O)c1O")
"inactive"
>>> group_label("CCCCCCCCCCCCCCCCCCOCC(O)CO (stereo not given)")
"inactive"
>>> group_label("O=c1c(O)c(-c2ccc(O)c(O)c2)oc2cc(O)ccc12")
"inactive"
>>> group_label("CNC(Cc1c[nH]c2ccccc12)C(=O)O (stereo not given)")
"inactive"
>>> group_label("C[C@]12CCC3C(CC[C@H]4C[C@H](OS(=O)(=O)O)CC[C@]34C)C1CCC2=O (stereo not given in full)")
"inactive"

Exam item: Field: outcome | Entry: CN(C)CCc1c[nH]c2ccc(CS(=O)(=O)N3CCCC3)cc12
Marked response: inactive

Exam item: GET /call?item= CN(C)C(=N)N=C(N)N returns the recorded outcome of this test.
Marked response: inactive

----------
Assay: chemical genetic growth profiling, strain panel (AID 1159580);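 note: tested at 20 µM; growth read once vehicle control cultures reached saturation at 30 °C; 1 = growth at the plate median or of vehicle wells; lower values mean less growth of the strain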
Conditions: S. cerevisiae deletion strains, growth OD, locus YLR370C, strain arc18, hits give low values
Out of some 5,500 compounds screened, about 2,000 (36%) were called active. Roughly 18% stayed inconclusive and do not appear here. The list shows a part of the results.
Hi there, I'd appreciate the recorded normalized growth for every entry that follows.
Answers are plain numbers.

>>> quantitative_result("Cc1onc(-c2ccccc2Cl)c1C(=O)N[C@@H]1C(=O)N2[C@@H]1SC(C)(C)[C@@H]2C(=O)O")
1.02

// for each compound below, give its normalized growth
1. COc1cc2c(cc1O)CCNC2C (stereo unspecified)
2. Cc1onc(-c2ccccc2)c1C(=O)NC1C(=O)N2[C@@H]1SC(C)(C)[C@@H]2C(=O)O (stereo partly specified)
3. Cc1cc(=O)n(-c2ccccc2)n1C
4. CCCCCCCCCCCCCCCCCCOCC(O)CO (stereo unspecified)

Marked response:
1. 0.988
2. 1.02
3. 0.991
4. 0.998

Exam item: // returns reported normalized growth for input CN(C)C(=N)N=C(N)N
Marked response: 1.01
